B1: TPR 5TU (parent)
chain: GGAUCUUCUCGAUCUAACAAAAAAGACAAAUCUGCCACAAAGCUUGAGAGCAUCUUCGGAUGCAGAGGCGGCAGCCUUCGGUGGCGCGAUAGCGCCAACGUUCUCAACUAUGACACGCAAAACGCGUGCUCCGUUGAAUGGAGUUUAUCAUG

Variants of: B1
Assay: polymerase ribozyme fitness, log enrichment relative to wild type (log ratio); higher = more active; in vitro selection for triplet polymerase activity
This sample holds only a part of the variants without activity.
Give polymerase ribozyme fitness (log ratio) for every item shown.

Entry under review: G86C U109G C118G . Reported polymerase ribozyme fitness (log ratio)?
-3.5

Entry under review: C27G U44G U77G G83C A89U . Reported polymerase ribozyme fitness (log ratio)?
≤ -4.2

Entry under review: C54U C85A . Reported polymerase ribozyme fitness (log ratio)?
-2.3

Entry under review: C93G G94U C95A G128A . Reported polymerase ribozyme fitness (log ratio)?
≤ -4.2

Entry under review: A28G A52U G84A C103A . Reported polymerase ribozyme fitness (log ratio)?
≤ -4.2

Entry under review: C5A U45G C85G . Reported polymerase ribozyme fitness (log ratio)?
-2.33

Entry under review: `A97U` . Reported polymerase ribozyme fitness (log ratio)?
-0.75

Entry under review: U31A C85G C96G A142C . Reported polymerase ribozyme fitness (log ratio)?
≤ -4.2

Entry under review: C57A C85A . Reported polymerase ribozyme fitness (log ratio)?
-1.28

Entry under review: U33A G46A G59A C103A A115G . Reported polymerase ribozyme fitness (log ratio)?
-4.12

Entry under review: A30G A64G G136C . Reported polymerase ribozyme fitness (log ratio)?
-4.07

Entry under review: C32A G84U A97G C131U U139C . Reported polymerase ribozyme fitness (log ratio)?
≤ -4.2

Entry under review: G84U U101G U134G . Reported polymerase ribozyme fitness (log ratio)?
-3.87

Entry under review: A73U C75G G88C . Reported polymerase ribozyme fitness (log ratio)?
≤ -4.2

Entry under review: A49C G68C G81C C93A G126A . Reported polymerase ribozyme fitness (log ratio)?
≤ -4.2

Entry under review: A41C U53A U56A A66C C79G G84U . Reported polymerase ribozyme fitness (log ratio)?
≤ -4.2

Entry under review: A52C U53A G65A A66C C79U C149U . Reported polymerase ribozyme fitness (log ratio)?
≤ -4.2

Entry under review: C5A A40C G50U C57U G81C C95A U104G C116G G133A . Reported polymerase ribozyme fitness (log ratio)?
≤ -4.2

Entry under review: A16G A23G A37U G86A U135A . Reported polymerase ribozyme fitness (log ratio)?
≤ -4.2

Entry under review: A64G C99A G143A . Reported polymerase ribozyme fitness (log ratio)?
≤ -4.2

Entry under review: G25C G86A A122U . Reported polymerase ribozyme fitness (log ratio)?
≤ -4.2

Entry under review: A29U G94U U109A . Reported polymerase ribozyme fitness (log ratio)?
≤ -4.2
